Biological target: T cell receptor alpha/beta on primary cynomolgus T cells (cynomolgus)
Assay: cell-based or functional assay
IC50, flow cytometry based cynomolgus T cell mediated B cell (Ramos) killing assay for assorted binders
quantity_measured: IC50, flow cytometry based cynomolgus T cell mediated B cell (Ramos) killing assay (nM)

>>> reading("T017000074 (bispecific antibody, TCR x CD20 bispecific Nanobody construct (cluster A); entry includes the FLAG3-HIS6 tag; also called T0170056G05-35GS-20CD019C07-FLAG3-HIS6) EVQLVESGGGLVQPGGSLRLSCVASGDVHKINFLGWYRQAPGKEREKVAHISIGDQTDYADSAKGRFTISRDESKNMVYLQMNSLKPEDTAVYFCRAFSRIYPYDYWGQGTLVTVSSGGGGSGGGGSGGGGSGGGGSGGGGSGGGGSGGGGSEVQLVESGGGLVQPGGSLRLSCTFSGGTFSSYTMGWFRQAPGKEREFVAEVRWGGVTTYSNSLKDRFSISEDSVKNAVYLQMNSLKPEDTAVYYCAAVRQMYMTVVPDYWGQGTLVTVSSGAADYKDHDGDYKDHDIDYKDDDDKGAAHHHHHH")
0.24
>>> reading("T017000076 (bispecific antibody, CD20 x TCR bispecific Nanobody construct (cluster A); entry includes the FLAG3-HIS6 tag; also called 20CD019C07-35GS-T0170056G05-FLAG3-HIS6) EVQLVESGGGLVQPGGSLRLSCTFSGGTFSSYTMGWFRQAPGKEREFVAEVRWGGVTTYSNSLKDRFSISEDSVKNAVYLQMNSLKPEDTAVYYCAAVRQMYMTVVPDYWGQGTLVTVSSGGGGSGGGGSGGGGSGGGGSGGGGSGGGGSGGGGSEVQLVESGGGLVQPGGSLRLSCVASGDVHKINFLGWYRQAPGKEREKVAHISIGDQTDYADSAKGRFTISRDESKNMVYLQMNSLKPEDTAVYFCRAFSRIYPYDYWGQGTLVTVSSGAADYKDHDGDYKDHDIDYKDDDDKGAAHHHHHH")
0.309
>>> reading("T017000042 (bispecific antibody, TCR x CD20 bispecific Nanobody construct (cluster A); entry includes the FLAG3-HIS6 tag; also called T0170055A02-35GS-20CD019C07-FLAG3-HIS6) EVQLVESGGGLVQPGGSLRLSCAASGDVHKINILGWYRQAPAKEREMVAHITIGDATDYADSAKGRFTISRDEAKNMVYLQMNSLKPEDTAVYFCRAYSRIYPYNYWGQGTLVTVSSGGGGSGGGGSGGGGSGGGGSGGGGSGGGGSGGGGSEVQLVESGGGLVQPGGSLRLSCTFSGGTFSSYTMGWFRQAPGKEREFVAEVRWGGVTTYSNSLKDRFSISEDSVKNAVYLQMNSLKPEDTAVYYCAAVRQMYMTVVPDYWGQGTLVTVSSGAADYKDHDGDYKDHDIDYKDDDDKGAAHHHHHH")
0.17
>>> reading("T017000031 (bispecific antibody, TCR x CD20 bispecific Nanobody construct (cluster B); entry includes the FLAG3-HIS6 tag; also called T0170055C07-35GS-20CD019C07-FLAG3-HIS6) EVQLVESGGGLVQPGGSLRLSCITSGETFKINIWGWYRQAPGKQRELVASLTIGGATNYADSVKGRFTISEDSAKNTVYLQMNSLKPEDTAVYFCNAKSRLYPYDYWGQGTLVTVSSGGGGSGGGGSGGGGSGGGGSGGGGSGGGGSGGGGSEVQLVESGGGLVQPGGSLRLSCTFSGGTFSSYTMGWFRQAPGKEREFVAEVRWGGVTTYSNSLKDRFSISEDSVKNAVYLQMNSLKPEDTAVYYCAAVRQMYMTVVPDYWGQGTLVTVSSGAADYKDHDGDYKDHDIDYKDDDDKGAAHHHHHH")
0.79
>>> reading("T017000055 (bispecific antibody, entry includes the FLAG3-HIS6 tag; also called 20CD019C07-35GS-T0170055A02-FLAG3-HIS6) EVQLVESGGGLVQPGGSLRLSCTFSGGTFSSYTMGWFRQAPGKEREFVAEVRWGGVTTYSNSLKDRFSISEDSVKNAVYLQMNSLKPEDTAVYYCAAVRQMYMTVVPDYWGQGTLVTVSSGGGGSGGGGSGGGGSGGGGSGGGGSGGGGSGGGGSEVQLVESGGGLVQPGGSLRLSCAASGDVHKINILGWYRQAPAKEREMVAHITIGDATDYADSAKGRFTISRDEAKNMVYLQMNSLKPEDTAVYFCRAYSRIYPYNYWGQGTLVTVSSGAADYKDHDGDYKDHDIDYKDDDDKGAAHHHHHH")
0.569

These data points were gathered from patent US20190112392A1.
